Target: T1, human PVRIG-mFc protein (Acro, PVG-H5253) (human, UniProt Q6DKI7 41-171, limits assumed)
T1 construct: bought protein
T1 sequence (looked up): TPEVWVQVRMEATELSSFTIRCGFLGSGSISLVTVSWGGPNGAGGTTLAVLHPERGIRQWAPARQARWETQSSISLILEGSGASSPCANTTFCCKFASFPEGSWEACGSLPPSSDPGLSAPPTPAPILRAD
Assay: FACS competition, PVRIG-mFc binding to CHO-K1-CD112 cells, competitor CD112 on cells
Listed below: % AUC to COM701-hIgG4 values for each entry.
Report the figure along with its unit, number first.

The cases that follow already have their % AUC to COM701-hIgG4 on record.
* PVRIG-A15 (Fc fusion, heavy chain antibody VHH-hinge-CH2-CH3, human IgG1 constant part; not shown: human IgG1 hinge-CH2-CH3) QVQLVESGGGLVQAGGSLRLSCVASGRTFSANTMAWFRQAPGKEREFVAYTRWTDDNTDYASYADFVKGRFTAFRDNTRNTMYLQMNRLRPEDTAVYYCAAATTRGTYYSAGDYNSWGQGTQVTVSS | 77.2%
* PVRIG-A11 (Fc fusion, heavy chain antibody VHH-hinge-CH2-CH3, human IgG1 constant part; not shown: human IgG1 hinge-CH2-CH3) QLQLVESGGGLVQPGGSLRLSCAASGFTDDYYAIGWFRQAPGKEREGVSCISGSGGSTNYEDSVKGRFAISRDNAKNMVYLQMNDLKPEDTAVYYCAADPFWSAPCTGHNDRYFDVWGQGTLVTVSS | 78%

Entry PVRIG-A60 (Fc fusion, heavy chain antibody VHH-hinge-CH2-CH3, human IgG1 constant part; not shown: human IgG1 hinge-CH2-CH3) QVQLVESGGGLVQSGGSLRLSCAASGRTRSMYVMGWFRQAPGKEREFVGRIKWSGDTTYTSYADFVKGRFTLYGNQARNTVYLQMNSLKPEDAAVYYCNLRRLDGVNYWGKGTLVTVSS , % AUC to COM701-hIgG4 reported as 117%

Entry PVRIG-A30 (Fc fusion, heavy chain antibody VHH-hinge-CH2-CH3, human IgG1 constant part; not shown: human IgG1 hinge-CH2-CH3) QVQLVESGGGLVQPGGSLRLSCAASGRTDSMNVMGWFRRAPGKEREFVARIKWNGDTTYTAYADFLKGRFTLYGAVARNRVYLQMNSLQPEDTAVYYCAAGEVSGSSYSPDYGMHYWGKGTLVTVSS ; % AUC to COM701-hIgG4 = 58.9%

Entry under test: PVRIG-A105 (Fc fusion, heavy chain antibody VHH-hinge-CH2-CH3, human IgG1 constant part; not shown: human IgG1 hinge-CH2-CH3) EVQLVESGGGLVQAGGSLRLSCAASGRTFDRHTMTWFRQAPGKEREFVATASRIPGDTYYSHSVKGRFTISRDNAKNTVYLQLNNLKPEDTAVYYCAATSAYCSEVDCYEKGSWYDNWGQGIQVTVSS . Its % AUC to COM701-hIgG4 was 115%

Field % AUC to COM701-hIgG4 (entry PVRIG-A50 (Fc fusion, heavy chain antibody VHH-hinge-CH2-CH3, human IgG1 constant part; also called PVRIG-50; not shown: human IgG1 hinge-CH2-CH3) EVQLVESGGGLVQPGGSLRLSCAASGFTFSYYDMSWVRQAPGKGLEWVSTINSNGGRTSYVDSVKGRFTISRDNTKNTLYLQMNSLKPEDTAVYYCVEGDPHNFGLENLSLRDFGSWGQGTQVTVSS ) reads 104%
